Numbers sourced from patent US8304446B2.

# TGT: UniProt:P51679
# Sequence (P51679 1-360): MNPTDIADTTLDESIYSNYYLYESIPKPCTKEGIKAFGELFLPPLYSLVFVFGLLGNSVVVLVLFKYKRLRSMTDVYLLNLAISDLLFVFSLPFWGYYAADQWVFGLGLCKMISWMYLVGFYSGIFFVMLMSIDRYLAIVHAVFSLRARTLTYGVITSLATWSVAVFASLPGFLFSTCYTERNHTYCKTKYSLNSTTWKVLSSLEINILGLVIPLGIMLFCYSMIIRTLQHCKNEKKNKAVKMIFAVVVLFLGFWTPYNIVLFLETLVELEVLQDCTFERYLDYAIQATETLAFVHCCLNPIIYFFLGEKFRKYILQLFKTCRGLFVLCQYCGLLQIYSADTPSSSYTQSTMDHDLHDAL
pIC50: −log10 of the molar value. Counter-ions that a name gives are not always drawn.
MEASURED_METRIC: pIC50

Example molecules with recorded pIC50:
[[record]]
molecule = "O=C(NCc1cccc(Cn2nc(NS(=O)(=O)c3ccc(Cl)s3)c3c(O)cccc32)c1)C1COCCN1 (stereo not drawn) [Example 73, formate salt]"
tgt = "UniProt:P51679"
measured_metric = "pIC50"
observed = "7.80 to 8.40"

[[record]]
molecule = "CC(O)c1cccc2c1c(NS(=O)(=O)c1ccc(Cl)s1)nn2Cc1cccc(CNC(=O)[C@@H]2COCCN2)c1 (stereo partly drawn) [Example 153, formate salt]"
tgt = "UniProt:P51679"
measured_metric = "pIC50"
observed = "7.80 to 8.40"

[[record]]
molecule = "COc1cccc2c1c(NS(=O)(=O)c1ccc(Cl)s1)nn2Cc1cccc(CNC(=O)[C@]2(C)CCCN2)c1 [Example 27, trifluoroacetate]"
tgt = "UniProt:P51679"
measured_metric = "pIC50"
observed = "7.80 to 8.40"

[[record]]
molecule = "COc1cccc2c1c(NS(=O)(=O)c1ccc(Cl)s1)nn2Cc1cccc(CNC(=O)[C@@H](N)Cc2cnc[nH]2)c1"
tgt = "UniProt:P51679"
measured_metric = "pIC50"
observed = "7.80 to 8.40"

[[record]]
molecule = "COc1cccc2c1c(NS(=O)(=O)c1ccc(Cl)s1)nn2Cc1cccc(CNC(=O)C2CCOCC2)c1"
tgt = "UniProt:P51679"
measured_metric = "pIC50"
observed = "7.80 to 8.40"

[[record]]
molecule = "COc1cccc2c1c(NS(=O)(=O)c1ccc(Cl)s1)nn2Cc1cccc(CNC(=O)[C@@H](N)CO)c1"
tgt = "UniProt:P51679"
measured_metric = "pIC50"
observed = "7.80 to 8.40"


Request: Could you tell me which pIC50 is on file for COc1cccc2c1c(NS(=O)(=O)c1ccc(Cl)s1)nn2Cc1cccc(CNC(=O)[C@@H]2CCCCN2)c1 [Example 51, trifluoroacetate] ?
Result: 7.80 to 8.40

Request: Could you tell me which pIC50 is on file for `COc1cccc2c1c(NS(=O)(=O)c1ccc(Cl)s1)nn2Cc1cccc(CNC(=O)C(C)(C)O)c1` ?
Result: 7.80 to 8.40

Request: Could you tell me which pIC50 is on file for COc1cccc2c1c(NS(=O)(=O)c1ccc(Cl)s1)nn2Cc1cccc(CNC(=O)[C@@H]2C[C@H](F)CN2)c1 [Example 28, trifluoroacetate] ?
Result: 7.80 to 8.40

Request: Could you tell me which pIC50 is on file for `COc1cccc2c1c(NS(=O)(=O)c1ccc(Cl)s1)nn2Cc1cccc(CNC(=O)CCC(=O)O)c1` ?
Result: 7.80 to 8.40

Request: Could you tell me which pIC50 is on file for COc1cccc2c1c(NS(=O)(=O)c1ccc(Cl)s1)nn2Cc1cccc(CNC(=O)C(C)CN)c1 (stereo not drawn) [Example 26, trifluoroacetate] ?
Result: 7.80 to 8.40

Request: Could you tell me which pIC50 is on file for COc1cc(F)cc2c1c(NS(=O)(=O)c1ccc(Cl)s1)nn2Cc1cccc(CNC(=O)C2COCCN2C)c1 (stereo not drawn) ?
Result: 7.80 to 8.40
